# Tested on: STAPHYLOCOCCUS AUREUS A5177
# ASSAY INFO: In vitro antibacterial activity (MIC), agar dilution
# Format: cell-based
# CONDITION CONTEXT: S. aureus A5177; BHI agar, 35-37 °C, 20-24 h
MEASUREMENT KIND: minimum inhibitory concentration (MIC)
Give the figure only, with no unit attached.

Here's what some known entries look like.
Output measured minimum inhibitory concentration (MIC) for this item: CC[C@H]1OC(=O)[C@H](C)C[C@H](C)[C@@H](O[C@@H]2O[C@H](C)C[C@H](N(C)C)[C@H]2O)[C@](C)(OC)C[C@@H](C)C(=O)[C@H](C)[C@H]2OC(=O)O[C@@]21C
3.1

Output measured minimum inhibitory concentration (MIC) for this item: CC[C@H]1OC(=O)[C@H](C)C[C@H](C)[C@@H](O[C@@H]2O[C@H](C)C[C@H](N(C)C)[C@H]2O)[C@](C)(OC)C[C@@H](C)C(=NOC)[C@H](C)[C@@H](O)[C@]1(C)O
6.2

Output measured minimum inhibitory concentration (MIC) for this item: CC[C@H]1OC(=O)[C@H](C)C[C@H](C)[C@@H](O[C@@H]2O[C@H](C)C[C@H](N(C)C)[C@H]2O)[C@](C)(OC)C[C@@H](C)C(=NO)[C@H](C)[C@@H](O)[C@]1(C)O
25

Let's switch to this molecule now.
Output measured minimum inhibitory concentration (MIC) for this item: CC[C@H]1OC(=O)[C@H](C)C[C@H](C)[C@@H](O[C@@H]2O[C@H](C)C[C@H](N(C)C)[C@H]2O)[C@](C)(OC)C[C@@H](C)C(=O)[C@H](C)[C@@H](O)[C@]1(C)O
25

FYI, the data here is from patent US5747466A.
